- assayed_system: Gal4 DNA binding domain fused to the LBD of LXRα in HEK293 cells (Homo sapiens (Human))
- Sequence (Q13133 209-447): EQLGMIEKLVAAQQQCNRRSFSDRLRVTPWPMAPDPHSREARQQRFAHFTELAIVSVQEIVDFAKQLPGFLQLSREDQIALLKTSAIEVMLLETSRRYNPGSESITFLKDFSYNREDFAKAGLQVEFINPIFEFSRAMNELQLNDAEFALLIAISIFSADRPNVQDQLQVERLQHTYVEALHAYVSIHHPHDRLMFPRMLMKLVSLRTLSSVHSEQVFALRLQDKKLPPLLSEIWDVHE
- assay_notes: LXR luciferase transcriptional reporter gene assay, agonist mode, LXRα
- Type: cell-based
- condition_label: read-out: Cell LXRα EC50
readout_label: EC50 (nM)

>>> numeric_result("CS(=O)(=O)c1cccc(N2CCN(C[C@@H]3CCC(C(F)(F)F)OC3)[C@@H](c3ccc(F)cc3)C2)c1 (single isomer, unassigned)")
2640
>>> numeric_result("CS(=O)(=O)c1cccc(N2CCN(CC3CCC(O)(C(F)(F)F)CC3)[C@@H](c3ccccc3)C2)c1 (stereo partly drawn)")
760
>>> numeric_result("COC(=O)c1cnc(N2CCN(c3ccc(F)c(S(C)(=O)=O)c3)CC2C(C)(C)C)nc1C(F)(F)F (stereo not drawn)")
504
>>> numeric_result("CO[C@H]1CC[C@H](CN2CCN(c3ccc(CO)c(S(C)(=O)=O)c3)C[C@@H]2C(C)C)CC1 (single isomer, unassigned)")
1770
>>> numeric_result("CC(C)[C@@H]1CN(c2cccc(S(C)(=O)=O)c2)CCN1c1ccc(C(F)(F)F)nn1")
2110
>>> numeric_result("CC1(C)CCC(CN2CCN(c3cccc(S(C)(=O)=O)c3)C[C@H]2c2ccccc2)CC1")
4270
>>> numeric_result("CC(C)[C@@H]1CN(c2ccc(F)c(S(C)(=O)=O)c2Cl)CCN1c1ncc(Cl)c(C2CC2)n1")
1230
>>> numeric_result("CC(C)[C@@H]1CN(c2ccc(F)c(S(C)(=O)=O)c2)CCN1c1nc2ncccc2s1")
827
>>> numeric_result("CS(=O)(=O)c1cc(N2CCN(C[C@H]3CC[C@@H](C(F)(F)F)CC3)[C@H](c3ccccc3Cl)C2)ccc1C(N)=O (single isomer, unassigned)")
15700
>>> numeric_result("COCc1ccc(N2CCN(C[C@H]3CC[C@H](C(F)(F)F)CC3)[C@@H](c3ccccc3)C2)cc1S(C)(=O)=O")
9840
>>> numeric_result("CC(C)[C@@H]1CN(c2ccc(F)c(S(C)(=O)=O)c2)CCN1c1ncc(C(F)(F)F)c(C#N)n1")
136
>>> numeric_result("CC(C)[C@H]1CN(c2ccc(CO)c(S(C)(=O)=O)c2)CCN1C[C@H]1CC[C@H](C(F)(F)F)OC1 (single isomer, unassigned)")
122
>>> numeric_result("NS(=O)(=O)c1cccc(N2CCN(C[C@H]3CC[C@@H](C(F)F)CC3)[C@@H](c3ccccc3)C2)c1 (single isomer, unassigned)")
319
>>> numeric_result("CC1(C)CCC(CN2CCN(c3cccc(S(C)(=O)=O)c3)C[C@@H]2c2ccccc2)CC1")
279
>>> numeric_result("CC(C)[C@@H]1CN(c2ccc(F)c(S(C)(=O)=O)c2)CCN1c1ncc(Cc2ccc(C(=O)O)cc2)c(C(F)(F)F)n1")
4670
>>> numeric_result("NS(=O)(=O)c1cccc(N2CCN(C[C@H]3CC[C@@H](C(F)(F)F)CC3)[C@H](c3ccccc3)C2)c1 (single isomer, unassigned)")
9860
>>> numeric_result("CC(F)(F)[C@H]1CC[C@@H](CN2CCN(c3cccc(S(C)(=O)=O)c3)C[C@H]2c2ccccc2)CC1 (single isomer, unassigned)")
6290
>>> numeric_result("CS(=O)(=O)c1cc(N2CCN(C[C@H]3CC[C@H](C(F)(F)F)CC3)[C@H](c3ccccc3)C2)ccc1CO (single isomer, unassigned)")
11600
>>> numeric_result("CO[C@H]1CC[C@@H](CN2CCN(c3ccc(CO)c(S(C)(=O)=O)c3)C[C@@H]2C(C)C)CC1 (single isomer, unassigned)")
154
>>> numeric_result("CC(C)[C@@H]1CN(c2ccc(F)c(S(C)(=O)=O)c2)CCN1c1nccc(C2CC2)n1")
586
>>> numeric_result("CC(C)[C@@H]1CN(c2cccc(S(C)(=O)=O)c2)CCN1c1ncc(OC(F)F)cn1")
3660
